Data provenance: ChEMBL document CHEMBL4033754

Reported pIC50 values follow for various compounds
Molecular target: Neuropeptide Y receptor type 2 (Homo sapiens)
Sequence (P49146 whole entry): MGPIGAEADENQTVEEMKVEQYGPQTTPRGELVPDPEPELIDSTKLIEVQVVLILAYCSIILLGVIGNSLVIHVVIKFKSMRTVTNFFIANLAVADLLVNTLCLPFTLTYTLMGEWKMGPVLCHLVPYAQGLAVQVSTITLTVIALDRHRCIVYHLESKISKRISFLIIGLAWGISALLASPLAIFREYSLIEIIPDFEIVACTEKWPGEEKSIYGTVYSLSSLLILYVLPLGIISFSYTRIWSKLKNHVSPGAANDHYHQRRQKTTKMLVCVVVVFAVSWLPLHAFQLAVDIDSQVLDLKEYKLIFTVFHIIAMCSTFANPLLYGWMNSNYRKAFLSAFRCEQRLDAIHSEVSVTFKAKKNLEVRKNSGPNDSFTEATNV
Assay: Displacement of [125I]-PYY from human Y2R expressed in CHO cell membranes after 60 mins by liquid scintillation method
Where a SMILES comes first, the peptide text is derived from it. [ ]: non-standard residue; d: D form. ξ: configuration not given here. ξCha = NC(CC1CCCCC1)C(=O)O; Aib = CC(C)(N)C(=O)O; ξAbu = CCC(N)C(=O)O
The meaning of pIC50 here: minus log10 of the concentration in molar units.

Endpoint output: pIC50 of CCC(NC(=O)[C@H](CCCNC(=N)N)NC(=O)[C@H](CC(C)C)NC(=O)[C@@H](CO)NC(C)=O)C(=O)NC(CC1CCCCC1)C(=O)NC(CC1CCCCC1)C(=O)N[C@@H](CC(N)=O)C(=O)N[C@@H](CC(C)C)C(=O)NC(C)(C)C(=O)N[C@H](C(=O)N[C@@H](CCCNC(=N)N)C(=O)N[C@@H](CCC(N)=O)C(=O)N[C@@H](CCCNC(=N)N)C(=O)NC(CC1CCCCC1)C(N)=O)[C@@H](C)O (stereo partly drawn) . Value? 7.92

Query (compound): CCC(NC(=O)[C@H](CCCNC(=N)N)NC(=O)[C@H](CC(C)C)NC(=O)[C@H](CO)NC(C)=O)C(=O)NC(CC1CCCCC1)C(=O)NC(CC1CCCCC1)C(=O)N[C@@H](CC(N)=O)C(=O)N[C@@H](CC(C)C)C(=O)NC(C)(C)C(=O)N[C@H](C(=O)N[C@@H](CCCNC(=N)N)C(=O)N[C@@H](CCC(N)=O)C(=O)N[C@@H](CCCNC(=N)N)C(=O)NC(CC1CCCCC1)C(N)=O)[C@@H](C)O (stereo partly drawn) ; field requested: pIC50 8.06

Look at this compound and give its reported pIC50. CCC(NC(=O)[C@H](CCCNC(=N)N)NC(=O)[C@H](CC(C)C)NC(=O)[C@H](CO)NC(=O)[C@H](C)N)C(=O)NC(CC1CCCCC1)C(=O)NC(CC1CCCCC1)C(=O)N[C@@H](CC(N)=O)C(=O)N[C@@H](CC(C)C)C(=O)NC(C)(C)C(=O)N[C@H](C(=O)N[C@@H](CCCNC(=N)N)C(=O)N[C@@H](CCC(N)=O)C(=O)N[C@@H](CCCNC(=N)N)C(=O)NC(CC1CCCCC1)C(N)=O)[C@@H](C)O (stereo partly drawn) (H-ASLR[ξAbu][ξCha][ξCha]NL[Aib]TRQR[ξCha]-NH2) 8.57
